All figures here come from ChEMBL document CHEMBL2434833.

Each record here notes measured Cmax.
protocol details: Cmax in C57 mouse at 10 mg/kg, po
Format: ADME, organism-based
Set-up: dose 10 mg/kg, route oral
settings: in vivo
measurement type: Cmax

{"smi": "CN[C@@H](C)C(=O)N[C@@H]1C(=O)N(Cc2c(OC)ccc3ccccc23)c2ccc(C#N)cc2N(C(C)=O)[C@H]1C.Cl", "result": "873 ng/mL"}
{"smi": "CN[C@@H](C)C(=O)N[C@@H]1C(=O)N(Cc2c(C)ccc3ccccc23)c2ccc(C#N)cc2N(C(C)=O)[C@H]1C.Cl", "result": "823 ng/mL"}

###

protocol details: Plasma concentration in nude mouse xenografted with human LOX cells at 100 mg/kg, po measured at 8 hrs
Format: ADME, organism-based
Parameters: dose 100 mg/kg, route oral

{"compound": "CN[C@@H](C)C(=O)N[C@H](C(=O)N1CCC[C@H]1c1nc(C(=O)c2ccc(F)cc2)cs1)C1CCCCC1 [LCL-161]", "unit symbol": "µM", "concentration at 8 h": 3.3}
